Origin of values: patent US20250195502A1

- Test system: 786-O (clear cell renal cell adenocarcinoma cell)
- method.notes: Cell viability assay (Promega CellTiter-Glo), inhibitory effect on 786-O
- Assay type: cell-based
- measurement.context: Homo sapiens, 786-0, 72 h, 3 days of culture
Quick list: pIC50 per entry.
Convention used: pIC50 is expressed as -log10 of the molar concentration.

Previously resolved entries follow.
{"columns": ["cpd.smiles", "assay.system", "pIC50"],
 "data": [
  ["COc1ccc2c(CCCc3ccccc3)c3[n+](cc2c1OC)CCc1cc2c(cc1-3)OCO2", "786-O (clear cell renal cell adenocarcinoma cell)", 5.27],
  ["COc1ccc2cc3[n+](cc2c1OCCCCCCCl)CCc1cc2c(cc1-3)OCO2", "786-O (clear cell renal cell adenocarcinoma cell)", 5.42],
  ["COc1ccc2cc3[n+](cc2c1OC/C=C(\\C)CCC=C(C)C)CCc1cc2c(cc1-3)OCO2", "786-O (clear cell renal cell adenocarcinoma cell)", 5.63],
  ["CCCCc1c2c(OC)c(OC)cc(Br)c2cc2[n+]1CCc1cc3c(cc1-2)OCO3", "786-O (clear cell renal cell adenocarcinoma cell)", 5.40]
]}

With those in mind, consider the next compound.
QUERY: Look up and report measured pIC50 for this entry: CCCCc1c2c(OC)c(OC)ccc2cc2[n+]1CCc1cc3c(cc1-2)OCO3
RESULT: 5.12
